assay: Phase 1 combination study: MK-2206 pharmacokinetics; type: in vivo, human; conditions: human, plasma, oral, first dose; arm 3 erlotinib 150 mg QD; MK-2206 45 mg QOD; 4 patients; read-out: T max, median (range)
reported.metric: Tmax (h)
Return type: number; implicit unit h.

Given item NC1(c2ccc(-c3nc4ccn5c(=O)[nH]nc5c4cc3-c3ccccc3)cc2)CCC1 [MK-2206] , the value recorded as its Tmax is 7

###

Experiment: Phase 1 combination study: MK-2206 pharmacokinetics
Type: in vivo, human
Conditions: human, plasma, oral, first dose; arm 1 carboplatin AUC 6 + paclitaxel 200 mg/m^2; MK-2206 200 mg Q3W; 5 patients; read-out: t 1/2, harmonic mean ± pseudo SD (converted)
Procedure: For the Q3W schedule, samples were taken in cycle 1 on days 1 to 3 as per the QOD schedule, then on days 5, 7, 15, and in cycle 2 on day 1. […] Docetaxel PK samples were analyzed in view of the DLT of febrile neutropenia observed in arm 2; however, PK parameters, such as half-life (t1/2) or systemic exposure of paclitaxel, docetaxel, carboplatin, and erlotinib, could not be evaluated due to the sparse blood sampling design used in this study. […]
reported.metric: half-life (h)
Please give a number only; it is taken to be in h.

Looking up NC1(c2ccc(-c3nc4ccn5c(=O)[nH]nc5c4cc3-c3ccccc3)cc2)CCC1 , I found its half-life recorded as 74.7
